# key: entry, value: antibody concentration required to reach half value of mean fluorescence intensity
- target system: T1, A33 antigen (full-length human A33) (human, UniProt Q99795 22-319)
- T1 construct: Class I cell membrane protein of the Ig superfamily; also called GPA33; human A33 antigen
- T1 sequence: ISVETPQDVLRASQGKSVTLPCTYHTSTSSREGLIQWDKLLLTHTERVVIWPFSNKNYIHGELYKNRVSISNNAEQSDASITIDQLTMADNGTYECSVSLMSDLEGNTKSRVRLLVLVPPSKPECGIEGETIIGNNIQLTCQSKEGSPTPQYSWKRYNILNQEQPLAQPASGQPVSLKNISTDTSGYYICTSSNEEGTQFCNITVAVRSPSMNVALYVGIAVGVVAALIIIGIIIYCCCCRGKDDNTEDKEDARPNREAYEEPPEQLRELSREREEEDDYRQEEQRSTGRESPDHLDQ
- test details: FCM on LoVo cells; grade = ng/ml to reach half MFI 25 (+++ 10<=x<100, ++ 100<=x<1000, + 1000<=x<10000)

125Q47BA (antibody, V domains shown, Human IgG1 kappa antibody purified from the hybridoma (FERM BP-10104); also called 125Q47BA antibody) VH: EVQLLESGGGLVQPGGSLRLSCAASGFTFSSYAMTWVRQAPGKGLEWVSDISGSGGYTYYADSVKGRFTISRDNSKNTLYLQMNSLRAEDTAVYYCAKTGAGSGSYSPDSWGQGTLVTVSS VL: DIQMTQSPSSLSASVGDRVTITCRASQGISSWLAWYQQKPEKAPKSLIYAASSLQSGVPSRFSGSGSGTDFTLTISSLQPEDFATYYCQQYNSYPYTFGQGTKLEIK :: 10 to 100 ng/mL

Here is another binder to look at.
Task: # lookup: antibody concentration required to reach half value of mean fluorescence intensity of chimeric anti-A33 antibody (antibody, V domains shown, Mouse variable regions with human IgG1 heavy chain and light chain constant regions (N5KG1-Val Lark vector); also called cA33; chimeric anti-A33 recombinant antibody) VH: EVKLVESGGGLVKPGGSLKLSCAASGFAFSTYDMSWVRQTPEKRLEWVATISSGGSYTYYLDSVKGRFTISRDSARNTLYLQMSSLRSEDTALYYCAPTTVVPFAYWGQGTLVTVSS VL: DIVMTQSQKFMSTSVGDRVSITCKASQNVRTVVAWYQQKPGQSPKTLIYLASNRHTGVPDRFTGSGSGTDFTLTISNVQSEDLADYFCLQHWSYPLTFGSGTKLEVK
Result: 10 to 100 ng/mL

Cited source for all entries: patent US20080200654A1
